System: SF-268 CNS
assay-procedure: NCI-60 one-dose screen, 48 h
condition-info: 10 µM unless noted
Experimental: Cells are grown in 96 well plates and exposed to the test compound for 48 hours. Compounds are tested at a single concentration, which is 10^-5 M for most compounds. The reported endpoint is percent growth (GI% or GIPRCNT), where numbers from 0 - 100% represent growth inhibition, and numbers from -100% - 0 represent cell death. For example, a value of 40 represents 60% growth inhibition. A value of 0 means no net growth occurred over the course of the experiment. […]
About 83,000 compounds went through this panel and 20% of them were active in at least one assay; those are over-represented in the sample as a whole. The source made the active and inactive calls. The calls were made as follows: active = growth percent below 10; inactive = the rest.
Returns: one label drawn from active, inactive

Example results:
* CCCCCCCCCCCCCCCCCC(=O)OCCCCCCCCCCCCC | inactive
* ClC1(Cl)C2CCCCCCC21 (centres undefined) | inactive
* CN(C)CC(=O)c1ccc2cc(Br)c3ccccc3c2c1 | inactive

Now take the following compound into account.
Asked: What is the recorded call for this compound in the test? Cc1cc(-c2ccc(N=Nc3c(S(=O)(=O)O)cc4cc(S(=O)(=O)O)cc(O)c4c3O)c(C)c2)ccc1N=Nc1c(S(=O)(=O)O)cc2cc(S(=O)(=O)O)cc(O)c2c1O
Given back: inactive

----------
Items are presented alongside their recorded growth.
Test system: HT29 colon
assay-procedure: NCI-60 one-dose screen, 48 h (100 = growth as untreated, 0 = no growth, -100 = all killed)
condition-info: 10 µM unless noted
This is part of a sample that, as a whole, favours compounds with a hit. Of some 83,000 tested, about 20% had one in any assay. The source made the active and inactive calls. Rule for the calls: active = growth percent below 10; inactive = the rest.

Before answering, review these 3 worked examples.
* O=C(O)C(CCc1ccccc1)NCc1ccccc1 (stereo not given) | 96.2% (inactive)
* COc1ccc(-c2conc2-n2nc(-c3ccccc3)nc2-c2ccccc2)cc1 | 102% (inactive)
* CN(C)c1ccc(C2(Cl)c3ccccc3N(C)c3ccccc32)cc1 | 12.1% (inactive)

Asked: Which growth is reported for this molecule? CC(C)(C)OC[C@@H]1N=C(c2ccc(Br)cc2)Nc2nc3ccccn3c2C1=O
Given back: 21.8% (inactive)

Asked: Fill in the blank: the reported growth of O=C1/C(=C/c2ccccc2)SC(=Nc2ccccc2)N1Nc1ccccc1 is ____.
Given back: 5.63% (active)

Asked: What growth value was documented for this molecule, CCN1C(=O)N(CC)C2C1NC(=O)N2/N=C/C=C/c1ccccc1 (stereo not given) ?
Given back: 14.6% (inactive)

Asked: If you can, please state the reported growth value of CC(=O)Oc1c(Cl)c(Cl)c(Cl)c(Cl)c1Cl .
Given back: 99.9% (inactive)

Asked: Quick one: growth of CN1C(=O)C(C2=NNC(c3ccccc3C(=O)O)C2)C(=O)N(C)C1=O (stereo not given) ?
Given back: 98.5% (inactive)

Asked: I would be grateful if you could share the reported growth for COc1ccc(CNc2c3ccccc3nc3ccc(OC)cc23)cc1 .
Given back: -2.9% (active)

Asked: State the recorded growth for this entry: O=C(c1ccc(OCCN2CCCCC2)cc1)c1c(-c2ccc(O)cc2)sc2cc(O)ccc12
Given back: 114% (inactive)

----------
System: EKVX NSCLC
assay-procedure: NCI-60 one-dose screen, 48 h (100 = growth as untreated, 0 = no growth, -100 = all killed)
condition-info: 10 µM unless noted
This is part of a sample that, as a whole, favours compounds with a hit. Of some 83,000 tested, about 20% had one in any assay. Calls of active or inactive are those of the source. How the source made its calls: active means growth percent below 10; inactive means the rest.
Reported values of growth for individual entries

Past entries and their recorded results:
• CC(=O)C1CCC2C3CC(C)=C4CC(O)CCC4(C)C3CCC12C (configuration not stated) = 79.5% (inactive)
• CNC1=C([N+](=O)[O-])C(c2ccccc2O)C(C#N)=C(c2cccs2)O1 (configuration not stated) = 97.2% (inactive)
• Cc1ccc(NC(=O)c2sc3nc4c(cc3c2N)C(=O)CCC4)cc1Cl = 86.2% (inactive)
• NS(=O)(=O)c1ccc(CCn2c(SCC(=O)N/N=C/c3cc4ccccc4[nH]3)nc3ccccc3c2=O)cc1 = 85.3% (inactive)
• NS(=O)(=O)c1ccc(CCn2c(SCC(=O)N/N=C/c3cccnc3)nc3ccccc3c2=O)cc1 = 96% (inactive)
• CCOC(=O)CCN(CCC(=O)OCC)c1ccccc1 = 115% (inactive)
• CC(=O)NC1C(O[C@H]2C[C@H]3[C@@H]4CC=C5C[C@@H](O)CC[C@]5(C)[C@H]4CC[C@]3(C)[C@H]2[C@H](C)C(=O)CCC(C)C)OCC(O)C1O (some centres not stated) = 46.3% (inactive)
• O=C1SCN(Cc2ccccc2)CN1Cc1ccccc1 = 101% (inactive)
• Clc1cc2nc(-c3ccccc3)c(-c3ccccc3)nc2cc1Cl = 82.6% (inactive)
• COc1ccc2nc3cc(Cl)ccc3c(NC(=O)CSc3ccc(Cl)cc3)c2c1 = -62.4% (active)

Asked: Record lookup: for EKVX NSCLC, what growth belongs to O=C(CCCCCCN1CC(=O)N2[C@@H](c3ccc(Cl)c(Cl)c3)c3[nH]c4ccccc4c3C[C@H]2C1=O)NO ?
Given back: 64.6% (inactive)

Asked: Please provide the recorded growth for COc1cc(C2CC(c3ccc(Cl)cc3)=NN2C=O)ccc1Oc1ccnc2cc(Cl)ccc12 (configuration not stated) , tested on EKVX NSCLC.
Given back: 59% (inactive)

----------
Tested on: SK-MEL-5 melanoma
assay-procedure: NCI-60 one-dose screen, 48 h (100 = growth as untreated, 0 = no growth, -100 = all killed)
condition-info: 10 µM unless noted
About 83,000 compounds went through this panel and 20% of them were active in at least one assay; those are over-represented in the sample as a whole.
Record true (1) whenever growth is at 80% or higher; record false (0) when lower.

- CNC(=O)c1c(NC(=O)c2cccc(C(F)(F)F)c2)sc2c1CCC(=O)C2: false (0)
- O=C1Nc2ccccc2/C1=C\c1nc(C2CCN(S(=O)(=O)c3ccc(F)cc3)CC2)n2ccccc12: false (0)
- Oc1ccc(-c2nc3ccccc3s2)cc1CN(Cc1ccccn1)Cc1ccccn1: false (0)
- CCN(CC)CCNC(=O)n1cc(-c2ccncc2)c(-c2cc(Cl)cc(OC)c2)n1: true (1)

Pending molecule:
Asked: Say whether CCCCOc1nc2ccc(C)cc2cc1/C=C/C(=O)/C=C(O)/C=C/c1cc2cc(C)ccc2nc1OCCCC shows growth of 80% or more.
Given back: true (1)

----------
Test system: MCF7 breast
assay-procedure: NCI-60 one-dose screen, 48 h (100 = growth as untreated, 0 = no growth, -100 = all killed)
condition-info: 10 µM unless noted
Description: Growth inhibition of the MCF7 human tumor cell line is measured as a screen for anti-cancer activity. Cells are grown in 96 well plates and exposed to the test compound for 48 hours. Compounds are tested at a single concentration, which is 10^-5 M for most compounds. The reported endpoint is percent growth (GI% or GIPRCNT), where numbers from 0 - 100% represent growth inhibition, and numbers from -100% - 0 represent cell death. For example, a value of 40 represents 60% growth inhibition. […]
This is part of a sample that, as a whole, favours compounds with a hit. Of some 83,000 tested, about 20% had one in any assay. The source made the active and inactive calls. Rule for the calls: active = growth percent below 10; inactive = the rest.
experimental-endpoint: growth

Answered cases to consult:
* C=C(C)[C@@H]1CC[C@]2(C(=O)NS(=O)(=O)c3ccccc3)CC[C@]3(C)[C@H](CC[C@@H]4[C@@]5(C)CC[C@H](OC(=O)NS(=O)(=O)c6ccccc6)C(C)(C)[C@@H]5CC[C@]43C)[C@@H]12 | 2.66% (active)
* CCSCC1CC(O)(c2ccccc2)C(c2ccccc2)C(c2ccc(F)cc2)O1 (stereo not given) | 1.86% (active)
* C=C1C(=O)O[C@H]2[C@H]1CC/C(COC(=O)NCc1ccc(Cn3c(=O)sn(CCCl)c3=O)cc1)=C\CC[C@@]1(C)O[C@@H]21 | 31.7% (inactive)
* CC1=CCC2C1CC=C(C)C(CC[C@H]1[C@@](C)(O)CCC3OC(C)(C)[C@H](OC(=O)c4ccccc4)CC[C@@]31C)C2(C)C (stereo not given in full) | 74.9% (inactive)
* COc1cc(/C=N/NC(=O)Cn2c(-c3ccc(C)o3)nc3ccccc32)ccc1OCc1ccccc1 | 76.2% (inactive)
* Clc1ccc(-c2nc(-c3cccs3)no2)cc1 | 33.7% (inactive)

Asked: Name the recorded growth for CCOC(=O)C1=C(C(=O)OCC)N(c2cc(OC)c(OC)c(OC)c2)C(N)=C(C#N)C1c1cc(=O)[nH]c2ccccc12 (stereo not given) .
Given back: 96% (inactive)

Asked: Requested read-out: growth. Entry: c1cn2cc(-c3ccc4ncn(C5CCCCC5)c4c3)nc(-c3ccc4c(c3)ncn4C3CCCCC3)c2n1
Given back: -3.78% (active)

Asked: Given CC(=O)O[C@H]1CC[C@]2(C)[C@H]3CC=C4[C@@H]5CC(C)(C)CC[C@]5(C(=O)OCC(COC(=O)C(Cl)Cl)(COC(=O)C(Cl)Cl)NC(=O)C(Cl)Cl)CC[C@@]4(C)[C@]3(C)CC[C@H]2C1(C)C , state its recorded growth.
Given back: 41.9% (inactive)
